protocol-notes: chemical genetic growth profiling, strain panel (AID 1159580);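 note: tested at 20 µM; growth read once vehicle control cultures reached saturation at 30 °C; 1 = growth at the plate median or of vehicle wells; lower values mean less growth of the strain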
test-parameters: S. cerevisiae deletion strains, growth OD, locus YNL071W, strain lat1
Among all 5,500 compounds or so, about 2,000 (36%) were called active. Another 18% or so got no clear call; they are omitted. Cut-off read from the data, not from the text of the source: active = normalized growth mostly below about 0.91 (no sharp cut-off); inconclusive = no clear call, values can overlap the other calls; inactive = mostly above about 0.92. The list shows a part of the results.
Possible outcomes: true (1) (active), false (0) (inactive)

{"columns": ["molecule", "assigned-category"],
 "data": [
  ["NCCc1c[nH]c2ccccc12", "false (0)"],
  ["COc1ccc(-c2oc3ccccc3c(=O)c2O)cc1OC", "true (1)"],
  ["CNS(=O)(=O)c1ccc(NC(=O)c2ccccc2C(=O)O)cc1", "false (0)"],
  ["COc1cc2cc3c4cc(OC)c(OC)cc4cc[n+]3c(C)c2cc1OC", "false (0)"],
  ["OCc1c[nH]c2ccccc12", "true (1)"],
  ["COc1c2c(cc3c1OCO3)C13C=C[C@H](OC)CC1N(C2)CC3O (stereo partly specified)", "false (0)"],
  ["c1ccc([C@H]2CN3CCSC3=N2)cc1", "false (0)"],
  ["COC(=O)C[C@H]1C(C)(C)[C@@H](O)[C@@H]2CC3=C4C=C(OC)O[C@@H](c5ccoc5)[C@]4(C)CCC3[C@@]1(C)C2=O (stereo partly specified)", "false (0)"],
  ["CC[C@H]1CN2CCc3cc(OC)c(OC)cc3C2C[C@@H]1CC1NCCc2cc(OC)c(OC)cc21 (stereo partly specified)", "false (0)"],
  ["CNC(Cc1c[nH]c2ccccc12)C(=O)O (stereo unspecified)", "false (0)"],
  ["C#CC1(O)CCC2C3CCC4=CC(=O)CCC4(C)C3CCC21C (stereo unspecified)", "false (0)"]
]}
